# Experimental details: yeast display, Sf9 membrane polyspecificity reagent, FACS + sequencing; frameworks hold sequencing errors
Value type: polyreactivity (PSR sort gate)

• QVHLVESGGGLVQAGGSLRLSCAASASIFGSNAMGWYRQAPGKDRELVAAITWSDGSTYYADSVKGRFTISRDNAKNTVYLQMNSLKPDDTAVYYCSSDYGYSWYDYWGQGTQVTVSS = low polyreactivity
• QVQRVESGGGLVQAGGSLRLSCAASGNNVMGWYRQAPGKERELVAAISWSGTSTYADSVKGRFTISRDNAKNTVYIQMNSLKPEDTAVYYCAAEQQGRKYRASRRYDYWGQGTQVTVSS = low polyreactivity

###

# Experimental details: yeast display, Sf9 membrane polyspecificity reagent, FACS + sequencing; frameworks hold sequencing errors
Value type: polyreactivity (PSR sort gate)

- QVQLVESGGGLVQAGGSLRLSCAASGRIFNPYVMGWYRPAPGKERELVAAISSGGRTYYADSVKGRFTISRDNAKNTVYLQMNSLKPEDTTVYYCAREQYRRYSGYGYWGQGTQVTVSS: high polyreactivity
- QVQLVESGGGLVQAGGSLRLISAASGITFDPYAMGWYRQAPGKEREFVAAITRRSASTYYADSVKGRFTISRDNAKNTVYLQMNSLKPEDTALYYCAARGKVPYNYWGQGTQVTVSS: high polyreactivity
- QVQLVESGGGLVQAGGSLRLSCAASGIIISYYAMGWYRQAPGTERELVAAINWNGDSTHYADSVKGRFTISRDNAKNTVYLKMNSLKPEDTAVYYCAAGYTPDTRCHYGTHDMDYWGQGTQVTVSS: low polyreactivity
- QVQLVESGGGLVQAGGSLRLSCAASGSTFDPYAMGWYRQAPGIERELVAAITGRGGSTYYADSVKGRFTISRDNAKNTVYLQMNSLKPEDTAVYYCNAEGDKRRDRYDYWGQGSQVTVSS: low polyreactivity
- QVQLVESGGGLVQEGGSLRLRWAASGFIFDTYAMGWYRQAPGKERELVAGISDGGSTYYADSVKGRFTISRDNAKNTVYLQLNSLKPEDTAVYYCAAQGEYGFTAYYPGVSWGQGTQVTLSS: low polyreactivity
- QVQLVESGGGLVQAGGSLRLSCAASGSIFIYNVMGWYRQAPGKERELVATIRGSGGSTYYADSVKGRFTISRDNAQNTVYLQMNSLKPEDTAVYYCARRDYPVQWGRAYNYWGQGTQVTVSS: high polyreactivity
- QVQLQESGGGLVQAGGSLRMSCAARGTIFWQWAMGWYCQAPGKERELVASISSGGTTYHADSVKGRFTISRDNAKNTVYLQMNSLKPEDTAVYYCNAPNWSVAYVYITQEMDYWGQGTQVTVSS: low polyreactivity
- QVQLVESGGGLVQAGGSLRLSCAASGSTFTPYAMGWYRQAPGKERELVAAISWSDDSTYYADSVKGRFTISRDNAKNTVYLQMNSLKPEDTAVYYCAASAYVDYGVYTYIMDYWGQGTQVTVSS: high polyreactivity
- QVHLVESVVCLVQAGGSLALSCASYGSIFRYYALGWYIQGTGKESELVAGITWGCRRTFYADSEKGRFTISRHNAKNTFYIQMNILKPEDTAVCYCAPRWFWKAYRFYYWGQGTQLTVSS: high polyreactivity
- QVQLQESGGGLVQACGSLRLSCAASGYIFSHQYMGWYRQAPGKERELVASISPGATTNYADSVKGRFTISRDNAKNTVFLQMNSLKPEDTAVYYYAVYQMLDRRLSYWGQGTQVTVSC: high polyreactivity
- QVQLVESGGGLVQAGGSLRLCCAASGSIFKYNAMGWYRQAPGKERELVAAITWSGGSTYYADSVKGRFTISRDNAKNTVYLQMNSLKPEDTAVYYCAAVYYYASRTSKQPYYHWGQGTQVSVSS: high polyreactivity

###

# Experimental details: yeast display, Sf9 membrane polyspecificity reagent, FACS + sequencing; frameworks hold sequencing errors
Value type: polyreactivity (PSR sort gate)

• QVQLVESGGGLVQAGGSLRLSCAASGSTFHPNAMGWYRQAPGKERELVAISSGDDTYYADSVKGRFTISRDIAKNTVYLQMKSLKPEDTAVYYCAAEYSFIYYWGQGTQVTVSS = low polyreactivity
• QVQLQESGGGLVQAGGSLRLSCAESGSISRYYDMGWYRQAPGKEREFVAGISGGAITYYADSVKGRFTISRDNAKNTVYLQMNSLKPEDTAVYYCAADTGVYQYHSYWGQGTQVTVSS = low polyreactivity

###

# Experimental details: yeast display, Sf9 membrane polyspecificity reagent, FACS + sequencing; frameworks hold sequencing errors
Value type: polyreactivity (PSR sort gate)

• QVQLVESGGGLVQAGGSLRLSCAASGLTFSRNAMGWYRRAAGKERELVAAITKSGARTYYADSVKGRFTISRDNAKNTVYLQMNSLKPEDTAVYYCAADALNTYYYWGQGTQVTVSS = high polyreactivity
• QVQLVESGGGLVQAGGSLRLSCAASGSTSRKYTMGWYRQAPGKERELVATISWSGGSTNYADSVKGRFTISRDNAKNTVYLQMNSLKPEDTAVYYCNAYVSPRYRGSRYYYWGQGTQVTVSS = high polyreactivity

###

# Experimental details: yeast display, Sf9 membrane polyspecificity reagent, FACS + sequencing; frameworks hold sequencing errors
Value type: polyreactivity (PSR sort gate)

• QVQLVESGGGLVQAGGSLRLSCAASGSTFVYYAMGWYRQAPGKERELVARISSGGSTYYADSVKGRFTISRDNAKNTVYLQMNSLKPEDTAVYYCAVLLWVSPLKREFYWGQGTQVTVSS = high polyreactivity
• QVQLLESGGGLVQAGGSLRLSCAASGRIFGRYAMGWYRQAPGKERELVAAISSGGRTNYADSVKGRFTISRDNAKNTVYLQMNSLKPEDTAVYYCAARAYTYQAQSNYWGQGTQVTVSS = high polyreactivity
• QVQLVESWGGLVQAGGSLRLSCAASGSTFYAYAMGWYRQAPGKERELVAAIDSGGSTYYADSVKGRFTISRDNAKNTVYLQMNSLIPEDTAVYYCAVRHRYTRAYWGRDYWGQGTQVTVSS = low polyreactivity
• QVQLVESGGGLVQAGGSLRLSCAASGITFFVYDMGWYRQAPGKERELVAAITWSGDSTYYADSVKGRFTISRDNAKNTVYLQMNSLKPEDTAVYYCAAQFDVYYSRQPYDYNRSGYWGQGTQVTVSS = low polyreactivity
• QVHLVESGGGLVQAGGSLRLSCAPSGFTFGYNAMGWYRQAPGKERELVAAISYRDGSTYYADSVKGRFTISRDTAKNTVYLQMNSLKPEDTAVYYCAAEVWYPGWGYDYWGQGTQVTVSS = high polyreactivity

###

# Experimental details: yeast display, Sf9 membrane polyspecificity reagent, FACS + sequencing; frameworks hold sequencing errors
Value type: polyreactivity (PSR sort gate)

- QVQLVESGGGLVQAGGSLRLSCAASGSTFLYYAMGWYRQAPGKERELVAAITSSGGRTYYADSVKGRFTISRDNAKNTVYLQMNSLKPEDTAVYYCARGWPRREQSEYDYWGQGTQVTVSS: high polyreactivity
- QVQLEESGGGLVQAGGSLRLSCAASGLTISWNAMGWYRQAPGKERELVAAISSRGGSTYYADSVKARFKISRDNAKNTVYLQMNSLKPEETAVYYCAAEGYTYYPVYSTRMYYWGQGTQVTVLS: low polyreactivity
- QVQLVESGGGLVQAGGSLRLSCAASGFTFPFYTMGWYRQAPGKERELVAAITRSGASTFYADSVKGRFTISRDNAKNTVYLQMNSLKPEDTAVYYCAARRGYAPYEYWGQGTQVTVSS: high polyreactivity
- QVHLQDSGVGLVQAGGSLRLSCAASGSIFGSGSMGWFRQAPGKERELVATINNGSSTYYADSVKGRFTISRDNAKNTVYLQMNSLKPEDTAVYYCAVYLYRLTFFYYWGQGNQVTVSS: high polyreactivity
- QVQLVESGGGLVQAGGSLRLSCAASGFIFSNNAMGWYRQAHGKERELVAAISKSGGGTSYADSVKGRFTISRDNAKNTVYFQMNSLKPEDSAVYYCAARFRQFRVDYWGQGTQVTVSS: high polyreactivity
- QVQLVESGGGLDQAGGSLRLSCAASGITFQSNAMGWYRQAPGKERELVAGISGSGARTYYADSVKGRFTISRDNAKNTVYLQMNSLKPEDTAVYYCAKKSSYRYGYWGQGTQVTVSS: high polyreactivity
- QVQLVESGGGLVQAGGSLRLSCAASGRTLWTNAMGWYRQAPGKEREFVAPITWRGGSTYYADSVKGRFTISRDNAKNTVNLQMNSLKPEDTAVYYCATLIPRKGSRYYHRGYWGQGSQVTVSS: high polyreactivity
- QVQLVESGGGLVQAGGSLRLSWAASGITFYGNAMGWYRAAPGKEREFVAAISTRDGTTYADSVKGRFTISRDNAKNTVYLQRNSLKPEDTAVYYCAAAYYYDGQQGDFAYWGQGTQVTVSS: low polyreactivity
- EEELVESGGGLVQAGGSLRLSCAASGSIFTHYAMGWYRPAPGKERELVAAISWSGGSTYYADSVKGRFTISRDNAKKTVYLQMNSLKPEDTAVYYCAAETYWGDDYWGQGTQVTVSS: high polyreactivity
- QVQLVESGGGLVQAGGSLRLSCAASGSIFFDYAMGWYRQAPGKERELVAAINSGGTTNYADSVKGRFTISRDNAKNTVYLQMIQPETGRYRGLLLQRLPGYLRWYRWYDYWGQGTQVSVSS: low polyreactivity
- QVQLLESGGGLVQAGGSLRLSCAASGSIFGLYAMGWYRQAPGKERELVAAISPRGGSTYYADSVKGRFTISRDNAKNTVYLQMNSLKPEDTAVYYCNRDYIRYALGHDYWGQGTQVTVSS: high polyreactivity
- QVQLEDSGGGLVQAGGSLRLSCAASGFIFGLNAMGWNRQAPGKERELVAAIRSASSTNYADSVKGRFTISRDNAKNTVYLQMNSLKPEDTAVYYCAAEYVTYQHGFWGYDYWGQGTQVTVSS: low polyreactivity
- QVQLVESGGGLVQAGGSLRLSCAASGSTIDTYAMGWYRQAPGKERELVAAIRYTGGRTYYADSVKGRCTISSDNAKNTVYLHMNSLKPEDTAVYYCNADGTKWVRETYDYWGQGTQVTVSS: low polyreactivity
- QVQLVESGGGLVQAGGSLRLSCAASGRTFGYNAMGWYRQAPGKERELVASISYRGGSTYYADSVKGRFTISRDNAKNTVYLQMNSLKPEDTAVYYCNKYYVWREYYWGQGTQVTVSS: high polyreactivity
- QVQLVESGGGLVQAGGSLRLSCAASGRTFQWYAMGWYRQAPGKERELVAAISYNGDSTYYADSVKGRFTISRDNAKNTVYLQMNSLKPEDTAVYYCAATPYPYYGYDYWGQGTQVTVSS: high polyreactivity
- QVQLVESGRGLVQAGGSLRLSCAASGGTFSPYAMGWYSQGPGKDRELVASITGSGGSTYYADSVKGRFTISRGNATTTVNLQMTSLNPEDTAVYYCAAQGYWTYWPYLLRLYDYWGQGTQVTVSS: low polyreactivity
- QVQLVESGGGLVQAGGSLRLSCAASGIIFKSYAMGWYRQAPGKERELVAAISSGGSTYYVDSVKGRFTISRDNAKNTVYLQMNSLKPEDTAVYYCNARYKRYSYDYWGHGTQVTVSS: high polyreactivity
- QVHLVESGGGLVQAGGSLRLSCAASGFLFDVYAMGWYRQAPGKERELVAAISRSGGSTYYADSVKGRFTISRDNAKNTVYLQMNSLKPEDTAVYYCATDLLNNVDYDYWGQGTQVTVSS: low polyreactivity
- QVQLVESGGGLVQAGGSLRLSCAASGSTFVQYAMGWYRQAPGKERELVAAITRSGGSTYYADSVKGRFTISRDNAKNTVYLQMNSLKPEDTAVYYCAADFSSSYRAFNYWGQGTQLTVSS: high polyreactivity
- QVQLVESGGGLLQAGGSLRLSCADSGSTFLYKAMGCYIQAPGKEREFVAAISGSGGTTYYADSVKGRFTISRDNAKNTVYLQMNSLKPEDTAVYYCAVSQSWYWYYASDYWGQGTQVTVSS: low polyreactivity
- QVQLVESGGGLVQAGGSLRLSCAASGITFWRYALGWYRQAPGKEMELVAASRWSGSTYADSVKGRFTISRDNAKNTVYLQMNSLKPEDTAVYYCAAYPIGGYHDMDYWGQGTQVTVSS: high polyreactivity
